system: Staphylococcus epidermidis ATCC 14990; assay: microbe, parasite or virus in culture; type: cell-based; settings: ATCC 14990, 16 h
Positions of bridges follow the written chain, without caps; N, C: chain ends. Non-standard residues stand in square brackets, D forms with d. Residues, ends and D or L forms follow the SMILES beside them. Chains are numbered I, II in the order given. d(aIle) = CC[C@H](C)[C@@H](N)C(=O)O; dNMeF = CN[C@H](Cc1ccccc1)C(=O)O
Measurement kind: MIC Staphylococcus epidermidis ATCC 14990 (µg/mL)
Please respond with the number in µg/mL and leave the unit unwritten.

Some solved entries appear below for comparison.
{"columns": ["Compound", "Numeric value"],
 "data": [
  ["CC[C@H](C)[C@H](NC(=O)[C@@H](Cc1ccccc1)NC)C(=O)N[C@@H](CO)C(=O)N[C@H](CCC(N)=O)C(=O)N[C@@H](C(=O)N[C@H](C(=O)OC[C@H](N)C(=O)N[C@H]1C(=O)N[C@@H](C)C(=O)N[C@@H](CCCCN)C(=O)N[C@@H]([C@@H](C)CC)C(=O)O[C@H]1C)[C@@H](C)CC)[C@@H](C)CC [compound 2, [Ile6-O-Ser7],Lys10-teixobactin] (I: H-[dNMeF]IS[dQ][d(aIle)]I / II: H-S[dT]AKI; ester I:C-II:1, II:2-II:C)", 1],
  ["CC[C@H](C)[C@H](NC(=O)[C@@H](Cc1ccccc1)NC)C(=O)N[C@@H](CO)C(=O)N[C@H](CCC(N)=O)C(=O)N[C@@H](C(=O)N[C@H](C(=O)OC[C@H](N)C(=O)N[C@H]1C(=O)N[C@@H](C)C(=O)N[C@@H](CCCNC(=N)N)C(=O)N[C@@H]([C@@H](C)CC)C(=O)O[C@H]1C)[C@@H](C)CC)[C@@H](C)CC [compound 7, [Ile6-O-Ser7],Arg10-teixobactin] (I: H-[dNMeF]IS[dQ][d(aIle)]I / II: H-S[dT]ARI; ester I:C-II:1, II:2-II:C)", 0.5]
]}

Read the next record carefully.
Prompt: Endpoint output: MIC Staphylococcus epidermidis ATCC 14990 of CC[C@H](C)[C@H](NC(=O)[C@@H](Cc1ccccc1)NC)C(=O)N[C@@H](CO)C(=O)N[C@H](CCC(N)=O)C(=O)N[C@@H](C(=O)N[C@H](C(=O)N[C@@H](CO)C(=O)N[C@H]1C(=O)N[C@@H](C)C(=O)N[C@@H](CCCCN)C(=O)N[C@@H]([C@@H](C)CC)C(=O)O[C@H]1C)[C@@H](C)CC)[C@@H](C)CC [compound 1, Lys10-teixobactin] (H-[dNMeF]IS[dQ][d(aIle)]IS[dT]AKI; ester 8-C) . Value?
Response: 1
